The measured values listed here are drawn from ChEMBL document CHEMBL1201862.

# Test system: IGROV-1
# test.method.notes: NCI tumour cell line growth inhibition, 48 h
Active and inactive are the calls of the source. No stated cut-off is given here; in the data, active = GI50 up to about 1.1 µM and inactive = higher.
assay.metric: GI50

Below are worked cases with known answers.
O=C1Nc2ccccc2/C1=N/Nc1c(F)c(F)c(F)c(F)c1F 20.5 µM (inactive)
Oc1ccc2ccccc2c1/N=N/c1cccc2ccccc12 49.9 µM (inactive)
O=c1ccc(-c2ccc(-n3ccnc3)cc2)nn1CCO > 100 µM (inactive)

For the molecule O=C(O)C1(C(=O)O)CCN(S(=O)(=O)c2ccccc2)CC1 , what GI50 is on record?
> 100 µM (inactive)

* * *

Entries and their GI50
# Test system: EKVX
# test.method.notes: NCI tumour cell line growth inhibition, 48 h
The source made the active and inactive calls. Rule as the data show it: active = GI50 up to about 1.1 µM and inactive = higher.

compound	GI50
CCSc1[nH]c(/N=C(/NC(=O)c2ccccc2)NC(C)C)c(C(N)=O)c1C(N)=O	> 10 µM (inactive)

For O=C1NC(c2ccc(O)cc2)C2CCC1C2 (stereo not drawn) , what is its reported GI50?
> 100 µM (inactive)

Would you kindly share the measured GI50 for Cc1ccc(S(=O)(=O)c2c(O)c3ccc(O)c(C)c3oc2=O)cc1 ?
> 100 µM (inactive)

* * *

# Test system: SW-620
# test.method.notes: NCI tumour cell line growth inhibition, 48 h
Active and inactive are the calls of the source. Rule as the data show it: active = GI50 up to about 1.1 µM and inactive = higher.
Would you mind answering with one of these outcomes? active, inactive

Example entries begin here.
compound	assayed.target	group
Cc1c(/C=N\NC(=S)N2CCN(C(=S)N/N=C\c3c(C)n(C)n(-c4ccccc4)c3=O)CC2)c(=O)n(-c2ccccc2)n1C	SW-620	inactive
N#CCCN(C(=O)Nc1ccccc1)[C@H]1CCCC[C@@H]1N(C(=O)Nc1ccccc1)c1ccccc1	SW-620	inactive
O=C(c1ccc([N+](=O)[O-])cc1)N1CCCC1	SW-620	inactive
CC(C)(C)c1cc(-c2cc(C(C)(C)C)n(-c3ccccc3)n2)nn1-c1ccccc1	SW-620	inactive
CNC1=C(C)C(=O)C2=C(C1=O)C(COC(N)=O)C1(OC)C3NC3CN21 (centres undefined)	SW-620	active

Dear all, I need the recorded test outcome for O=C(Cl)C1=C(c2ccccc2)C1c1ccccc1 (centres undefined) , thank you.
inactive

Please indicate how the test categorized CNC1C(O)C(NC)C2OC3(O)C(=O)CC(C)OC3OC2C1O (centres undefined) .
inactive

What call does the record list for O=CN1CCN(CC(O)CN2CCCCC2)CC1 (centres undefined) ?
inactive

So what was the verdict on CC(C)Oc1cccc(N2C(NCCc3c[nH]c4ccccc34)=Nc3ccncc3S2(=O)=O)c1 in this test?
inactive

// return assay outcome for CCOC1(OCC)C2C=CC1C(COS(=O)(=O)c1ccc(C)cc1)C2COS(=O)(=O)c1ccc(C)cc1 (centres undefined)
inactive

Lab log entry: CC(C)(CCCCC(C)(C)NCC1COc2ccccc2O1)NCC1COc2ccccc2O1 (centres undefined) — outcome as called in the assay?
inactive

Fill in: this test's call for CC1=CC(C)C(C)N(CCNC(=O)Nc2ccccc2)c2ccccc21 (centres undefined) is ___
inactive

What classification did OC1[C@H](O)CN(OCc2ccccc2)C[C@@H]1O (some centres undefined) end up with in this test?
inactive

I'd appreciate the recorded outcome for Cc1cc(C)n(-c2c(O)ccc(O)c2-n2nc(C)cc2C)n1 from this test.
inactive

* * *

# System: MOLT-4
# test.method.notes: NCI tumour cell line growth inhibition, 48 h
Calls of active or inactive are those of the source. No stated cut-off is given here; in the data, active = GI50 up to about 1.1 µM and inactive = higher.
assay.metric: GI50

The examples below pair each entry with its known result.
compound	GI50
O=C1Nc2ccccc2/C1=N/Nc1c(F)c(F)c(F)c(F)c1F	12 µM (inactive)
COC(=O)CCSC(=O)Nc1ccc(/N=N/c2ccccc2)cc1	27.2 µM (inactive)
CC1(C#N)CC(C)(C)C(/C=C2/CC(C)(C)C(/C=C3/OC(=N)CC3(C)C)=N2)=N1 (centres undefined)	28.7 µM (inactive)

Now for another entry.
Sample CC1=CC(C)C(C)N(CCNC(=O)Nc2ccccc2)c2ccccc21 (centres undefined) — what was its GI50?
20 µM (inactive)
